Hi there, I'd appreciate the recorded activity change, negative = inhibition for every entry that follows.
system.tested: D(1A) dopamine receptor (Homo sapiens)
assay.info: Antagonist of Human D 1 Dopamine Receptor: qHTS; also: % is scaled to controls: 0 for no effect and ±100 for the full control effect
measurement.conditions: HEK293 TREx D1 cells, calcium flux, dopamine EC80; at 10 µM; active compounds read low
Hit rate of the full screen: of about 360,000 compounds, about 11,000 (3.1%) were called active. This excerpt belongs to a sample that is enriched for actives.
Express it in %; write the number only.

Input: GET /values?readout=activity change, negative = inhibition&item= O=S(=O)(c1ccc2c(c1)OCCO2)N1CCN(S(=O)(=O)c2cc(F)ccc2F)CC1
Output: -3.7

Input: Query (molecule): CCn1cc(C(=O)N/N=C(/C)c2ccc(F)cc2)c(=O)c2cc(F)c(N3CCCC3)cc21 ; field requested: activity change, negative = inhibition
Output: 1.71

Input: Need activity change, negative = inhibition, item COc1ccc(OC)c(S(=O)(=O)Nc2c(C)nn(C)c2C)c1
Output: 2.31

Input: Entry CSc1ccc(CCNC(=O)C2CCN(c3nnc(-n4cccc4)s3)CC2)cc1 has what activity change, negative = inhibition?
Output: 11.1

Input: Tell me the measured activity change, negative = inhibition of Cc1ccc(CN2CCC(n3nccc3NC(=O)CCCc3ccccc3)CC2)o1 , please.
Output: 3.11

Input: Fill in the blank: the reported activity change, negative = inhibition of CC(=O)N[C@@H](C)C(=O)N1CCC(n2nccc2NC(=O)CCCc2ccccc2)CC1 is ____.
Output: -35.7

Input: What value of activity change, negative = inhibition has been reported for the following molecule? COc1cc(/C=N/O)ccc1OCc1ccc([N+](=O)[O-])cc1
Output: -35.1

Input: Which activity change, negative = inhibition value is on record for Cn1nc(C(F)(F)F)c2cc(C(=O)N3CCOCC3)sc21 ?
Output: 6.73

Input: Report activity change, negative = inhibition for O=C(CC1NCCNC1=O)Nc1ccc(Oc2ccccc2)cc1 (stereo unspecified) please.
Output: 1.7

Input: What does the record list as activity change, negative = inhibition for O=C(NC1CCN(Cc2ccccc2)CC1)c1ccc(Cn2c(=O)c3ccccc3n(Cc3cccc(F)c3)c2=O)cc1 ?
Output: 2.59

Input: Looking for the measured activity change, negative = inhibition of NS(=O)(=O)c1ccc(CCNC(=O)CCCCCn2c(=O)[nH]c3ccccc3c2=O)cc1 , can you help?
Output: 5.32

Input: Which activity change, negative = inhibition value is on record for O=C(CC1NCCNC1=O)Nc1cc(Cl)cc(Cl)c1 (stereo unspecified) ?
Output: 4.63

Input: Look up activity change, negative = inhibition for this molecule: CSc1cccc(NC(=O)CN2C(=O)CCc3cc(S(=O)(=O)N4CCCCC4)ccc32)c1
Output: -0.775

Input: Look at this molecule and give its reported activity change, negative = inhibition. C/C=C/C(=O)OCc1csc(CC(=O)Nc2ccccc2C)n1
Output: -6.19

Input: Requested field: activity change, negative = inhibition. Item: Cc1nn(C)c(C)c1NS(=O)(=O)c1ccc(OC(F)(F)F)cc1
Output: -90.7

Input: Query (molecule): Fc1ccc(CSc2nc(NCc3ccccc3)c3ccccc3n2)cc1 ; field requested: activity change, negative = inhibition
Output: 21.1

Input: If you can, please state the reported activity change, negative = inhibition value of Cc1ccccc1NC(=O)Cc1nc(COC(=O)c2ccc(C(F)(F)F)cc2)cs1 .
Output: -34.6

Input: Need activity change, negative = inhibition, item CCOc1ccccc1NC(=O)Cn1c(=O)n(-c2cccc(C)c2)c(=O)c2c1c1cc(OC)ccc1n2C
Output: 9

Input: Data request, read-out activity change, negative = inhibition, for O=C(CC1NCCc2ccccc21)Nc1cccc(Cl)c1 (stereo unspecified)
Output: -31.7

Input: Using the record for Cc1cccc(N(C)C(=O)CS(=O)(=O)c2cccc3nsnc23)c1 , report its activity change, negative = inhibition.
Output: 9.37

Input: // returns reported activity change, negative = inhibition for input Cn1nc(C(F)(F)F)c(-c2ccc(F)cc2)c1NC(=O)CSCC(=O)O
Output: 8.45

Input: Need activity change, negative = inhibition, item Cc1ccccc1NC(=O)Cc1nc(COC(=O)c2cccnc2Cl)cs1
Output: -12

Input: For the molecule shown here, Cc1ccc(C)c(S(=O)(=O)n2nc(C)c(S(=O)(=O)N3CCC(C)CC3)c2C)c1 , give the reported activity change, negative = inhibition.
Output: 6.24

Input: Give the measured activity change, negative = inhibition of C#CCOCCOCCOCCNc1nc(N2CCN(C(=O)[C@H](CCCCN)n3cc([C@@H](N)C(C)CC)nn3)CC2)nc(N2CCN(C(=O)[C@H](Cc3ccc(O)cc3)n3cc([C@@H](N)C(C)CC)nn3)CC2)n1 (stereo partly specified) .
Output: -11.3

Input: Reported activity change, negative = inhibition for Cc1ccc(Nc2nc3ccccc3nc2-n2nc(C)cc2C)c(Cl)c1 : what is it?
Output: 6.62

Input: Dear colleague, I am looking for the recorded activity change, negative = inhibition of the following molecule: CCOc1ccc(OCC)c(Nc2nc3ccccc3n3nnnc23)c1
Output: 1.86

Input: If you can, please state the reported activity change, negative = inhibition value of CCCN(CCC)CCNC(=O)c1ccc2c(c1)NC(=O)C(CS(=O)(=O)Cc1cccc(Br)c1)N2 (stereo unspecified) .
Output: -3.96

Input: Look up activity change, negative = inhibition for this molecule: O=C(CSc1nnc(Nc2ccccc2F)s1)NC1CCCC1
Output: -3.18

Input: Bench note: what activity change, negative = inhibition did O=C(Cn1cnc2c(cnn2-c2ccccc2)c1=O)NCc1ccccc1 show?
Output: 5.27

Input: Requested read-out: activity change, negative = inhibition. Entry: COc1ccc(NC(=O)c2ccc3nc(C(C)C)oc3c2)cc1OC
Output: 13.3

Input: State the recorded activity change, negative = inhibition for this entry: O=C(CSc1nnc(-c2cccnc2)n1Cc1ccco1)c1ccc(Cl)c(Cl)c1
Output: 18.2

Input: Quick one: activity change, negative = inhibition for COc1ccc(NC(=O)c2ccc3oc(=O)c(S(=O)(=O)c4ccc(F)cc4)cc3c2)c(OC)c1 ?
Output: 4.65

Input: May I ask what activity change, negative = inhibition has been recorded for O=C(Cn1cnc2c(cnn2-c2ccc(F)cc2)c1=O)NCCc1ccccc1 ?
Output: -6.16

Input: activity change, negative = inhibition for CCCCOc1ccc(CNC(=O)c2ccc3c(c2)N(C)C(=O)C2CCCCN32)cc1 (stereo unspecified) ?
Output: 20.7

Input: Requested field: activity change, negative = inhibition. Item: CCn1cc(C(=O)NCCO)c(=O)c2cc(F)c(N3CCN(C)CC3)cc21
Output: -5.03

Input: Given the molecule CCOC(=O)c1scc(-c2ccc(C)cc2)c1S(=O)(=O)Nc1cc(C)ccc1C , what is its reported activity change, negative = inhibition?
Output: -6.21

Input: Look at this molecule and give its reported activity change, negative = inhibition. Fc1ccc(CNc2nc3ccccc3n3nnnc23)cc1
Output: -50.2

Input: # input molecule: Cc1c(NC(=O)C(C)(C)C)cccc1-c1nc2ccccc2s1 ; wanted: its activity change, negative = inhibition
Output: 0.443

Input: Consider the molecule O=C(CSc1nnc(C2CC2)n1Cc1ccccc1)Nc1cccnc1Cl and give its measured activity change, negative = inhibition.
Output: 8.52

Input: State the recorded activity change, negative = inhibition for this entry: CCCc1ccc(OCc2ccc(C(=O)N/N=C/c3cccc([N+](=O)[O-])c3)o2)c(OC)c1
Output: -9.05

Input: // activity change, negative = inhibition lookup, key: CC(C)c1ccc(NS(=O)(=O)c2ccc3[nH]cc(C(=O)NC4CCCC4)c(=O)c3c2)cc1
Output: 19.6
